Molecular target: T1, MPDZ_12, O75970
T1 sequence (O75970 1857-1958, limits assumed, looked up): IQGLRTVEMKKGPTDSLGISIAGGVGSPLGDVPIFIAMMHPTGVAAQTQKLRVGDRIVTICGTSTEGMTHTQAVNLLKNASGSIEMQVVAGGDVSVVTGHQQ
Test: holdup assay
Set-up: key: below the threshold = too weak to quantify, mostly under pKd 3.1 to 4
Details: plain residues with an end cap or a label only (N-terminal biotin on a linker: ado-ado)
endpoint.name: pKd

Examples with their reported pKd follow.
Please give the documented pKd of QKNRKAQEDL [CES3, Q6UWW8]
below the threshold

Give pKd for KSGKQTMLVV [TRIM29, Q14134;Q14134-2]
below the threshold

Please indicate pKd recorded for KKMPSIESDV [GRIN2A, Q12879]
below the threshold

For the binder HLRARKSEWV [GJD4, Q96KN9] , give its reported pKd.
3.57

Please report the measured pKd for ETQVTAETVI [TMEM225B, P0DP42]
below the threshold

Supply reported pKd belonging to this binder: VRNLPESEEL [MYOZ3, Q8TDC0]
below the threshold

Note pKd for the binder shown: KKAPTNEFYA [SDC4, P31431]
below the threshold

State its pKd for this binder: SKENVQETQI [LRRC4B, Q9NT99]
3.48

Kindly indicate its recorded pKd. Item: EVNETDDTKM [KCNJ1, P48048]
below the threshold

Read the entry YRLAQESGLV [ABCC6, O95255] and write its reported pKd.
below the threshold

---
Determine its reported pKd: RHGSCVETSL [TMEM151B, Q8IW70]
below the threshold

Give the reported pKd for this binder. NHSSSPETTA [TRMT13, Q9NUP7]
below the threshold
